- TARGET_SYSTEM: T1, biotinylated Fc-fused monkey CD137 (monkey, biotin on the AviTag)
- T1 construct: also called cyCD137-Fc-BAP
- T1 sequence (chain, as listed by the source limits assumed): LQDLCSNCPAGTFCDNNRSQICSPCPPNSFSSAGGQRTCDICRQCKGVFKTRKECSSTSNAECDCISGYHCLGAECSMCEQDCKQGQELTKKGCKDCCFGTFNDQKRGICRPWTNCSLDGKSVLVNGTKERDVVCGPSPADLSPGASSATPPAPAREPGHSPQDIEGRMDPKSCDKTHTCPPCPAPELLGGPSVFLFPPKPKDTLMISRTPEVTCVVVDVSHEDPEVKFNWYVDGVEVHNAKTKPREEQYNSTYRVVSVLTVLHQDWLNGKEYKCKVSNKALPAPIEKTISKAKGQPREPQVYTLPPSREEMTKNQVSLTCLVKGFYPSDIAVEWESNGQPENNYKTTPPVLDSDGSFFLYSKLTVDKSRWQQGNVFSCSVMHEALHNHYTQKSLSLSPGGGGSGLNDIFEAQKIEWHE
- ASSAY_REMARKS: ELISA, 1 mM ADP, 0.625 ug/mL
- Set-up: reference not given here
OBSERVABLE: absorbance ratio
Keep it simple and answer with nothing but the number.

Example binders with recorded absorbance ratio:
[
  {
    "BINDER": "dBBAT053-P253 (antibody, human IgG1, lambda, V domains shown) VH: EVQLVESGGDLVKPGGGLRLSCAASGFTFSTFTMNWVRQAPGKGLEWVSSISSRSNYIYYADSVKGRFTISRDNAKNSLYLQMNSLRAEDTAVYYCARFGLKNEMNWVFDYWGQGTLVTVSS VL: QSALTQPPSASGSPGQTVTISCTGTSSDVGFYNYVSWYQQHPGKAPKLMIYEGSKKPSGVPDRFSGSKSGNTASLTVSGLQAEDEADYFCSVYSYIYYVLFGGGTKLTVLG",
    "absorbance ratio": 2.3
  },
  {
    "BINDER": "dBBAT112-P253 (antibody, human IgG1, lambda, V domains shown) VH: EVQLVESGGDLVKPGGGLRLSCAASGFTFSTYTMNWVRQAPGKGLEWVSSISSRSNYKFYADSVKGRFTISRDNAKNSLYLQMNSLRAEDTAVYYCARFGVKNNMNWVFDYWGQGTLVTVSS VL: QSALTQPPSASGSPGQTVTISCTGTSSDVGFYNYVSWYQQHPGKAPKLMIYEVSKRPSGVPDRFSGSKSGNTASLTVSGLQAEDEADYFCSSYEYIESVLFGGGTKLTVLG",
    "absorbance ratio": 2.8
  },
  {
    "BINDER": "dBBAT007-P253 (antibody, human IgG1, lambda, V domains shown) VH: EVQLVESGGDLVKPGGGLRLSCAASGFTFSGYTMNWVRQAPGKGLEWVSSISSRSNYAHYADSVKGRFTISRDNAKNSLYLQMNSLRAEDTAVYYCARFGLKNFMNWVFDYWGQGTLVTVSS VL: QSALTQPPSASGSPGQTVTISCTGTSSDVGFYNYVSWYQQHPGKAPKLMIYGTSKRPSGVPDRFSGSKSGNTASLTVSGLQAEDEADYFCSSYAYDAQLVFGGGTKLTVLG",
    "absorbance ratio": 29.2
  }
]

Lab book: absorbance ratio of dBBAT037-P253 (antibody, human IgG1, lambda, V domains shown) VH: EVQLVESGGDLVKPGGGLRLSCAASGFTFSGYTMNWVRQAPGKGLEWVSSISSRSNYIDYADSVKGRFTISRDNAKNSLYLQMNSLRAEDTAVYYCARFGLKNSLNWVFDYWGQGTLVTVSS VL: QSALTQPPSASGSPGQTVTISCTGTSTDVGFYNYVSWYQQHPGKAPKLMIYETSKRPSGVPDRFSGSKSGNTASLTVSGLQAEDEADYFCSSYSGASILLFGGGTKLTVLG noted as 4.6

Lab book: absorbance ratio of dBBAT134-P253 (antibody, human IgG1, lambda, V domains shown) VH: EVQLVESGGDLVKPGGGLRLSCAASGFTFSSYTMNWVRQAPGKGLEWVSSISSRSNYADYADSVKGRFTISRDNAKNSLYLQMNSLRAEDTAVYYCARYGAKNEMNWVFDYWGQGTLVTVSS VL: QSALTQPPSASGSPGQTVTISCTGTSTDVGFYNYVSWYQQHPGKAPKLMIYEVSKRPSGVPDRFSGSKSGNTASLTVSGLQAEDEADYFCSSYTYDQQLMFGGGTKLTVLG noted as 5.8
